src = ChEMBL document CHEMBL1153864

- assay: Toxicity against golden Syrian hamster peritoneal macrophages
- Assay type: cell-based, Mesocricetus auratus
- condition: macrophage
experimental_endpoint: Activity

Query :: Requested field: Activity. Item: "c1cnc2c(OCOc3cccc4cccnc34)cccc2c1"
Result :: > 85 µg/mL

Query :: Requested field: Activity. Item: "O=c1ccc2cccc3c2n1CCO3"
Result :: > 220 µg/mL

Query :: Requested field: Activity. Item: "Cc1ccc2cccc(OCCCCOc3cccc4ccc(C)nc34)c2n1"
Result :: > 90 µg/mL

Query :: Requested field: Activity. Item: "Clc1ccc(OCOc2ccc(Cl)c3cccnc23)c2ncccc12"
Result :: > 80 µg/mL

Query :: Requested field: Activity. Item: "C[C@@H]1[C@H](O)[C@@H](C)/C=C/C=C/C=C/C=C/C=C/C=C/C=C/[C@H](O[C@@H]2O[C@H](C)[C@@H](O)[C@H](N)[C@@H]2O)C[C@@H]2O[C@](O)(C[C@@H](O)C[C@@H](O)[C@H](O)CC[C@@H](O)C[C@@H](O)CC(=O)O[C@H]1C)C[C@H](O)[C@H]2C(=O)O"
Result :: > 4 µg/mL

Query :: Requested field: Activity. Item: "Cc1ccc2cccc(OCOc3cccc4ccc(C)nc34)c2n1"
Result :: > 100 µg/mL

Query :: Requested field: Activity. Item: "Cc1ccc2cccc(OCCCOc3cccc4ccc(C)nc34)c2n1"
Result :: > 200 µg/mL

Query :: Requested field: Activity. Item: "N=C(N)c1ccc(OCCCCCOc2ccc(C(=N)N)cc2)cc1"
Result :: > 90 µg/mL

Query :: Requested field: Activity. Item: "Cc1ccc2cccc(OCCCCCOc3cccc4ccc(C)nc34)c2n1"
Result :: > 85 µg/mL
